Where these numbers come from: patent US20250214932A1

test system: Human Cav3.1 (Homo sapiens (Human))
procedure summary: Human Cav3.1 calcium channel patch clamp assay (SyncroPatch 384PE, HEK-293 natClytin/TASK1+Cav3.1 cell line)
Assay type: cell-based
reported conditions: voltage dependent block (VDB); read-out: Cav3.1 (VDB) IC50
pIC50: −log10 of the molar value.
value kind: pIC50

N#CC1(CN2CC3(CCC(C(=O)Nc4cc(F)cc(Cl)c4)CC3)C2)CCC1; 6.13
O=C(CN1CC2(CCC(C(=O)Nc3ccc(F)c(OC(F)F)c3)CC2)C1)NC1(C(F)(F)F)CC1; 6.83
CC(C)(C)NC(=O)CN1CC2(CCC(C(=O)Nc3cccc(C(F)F)c3)CC2)C1; 6.29

P: O=C(CN1CC2(CCC(C(=O)Nc3cc(F)cc(C(F)F)c3)CC2)C1)NC1(C(F)(F)F)COC1
Q: CC(C)(C#N)CN1CC2(CCC(C(=O)Nc3cc(F)cc(Cl)c3)CC2)C1
When P and Q are compared, which has the higher number for pIC50? Selection: enter the item's label. P

I: COc1cc(NC(=O)C2CCC3(CC2)CN(CC(=O)NC2(C(F)(F)F)CC2)C3)ccc1Cl
II: N#CC1(CN2CC3(CCC(C(=O)Nc4cc(F)cc(C(F)F)c4)CC3)C2)CCC(F)(F)CC1
III: Cc1cc(Cl)cc(NC(=O)C2CCC3(CC2)CN(CC2(C#N)CC2)C3)c1
IV: CN(C(=O)CN1CC2(CCC(C(=O)Nc3cc(F)cc(C(F)F)c3)CC2)C1)C1(C)CCC1
Rank items: key pIC50, increasing. Output spec: a listing of the labels in the requested order. III, II, IV, I
(III: 6.00, II: 6.27, IV: 6.47, I: 6.79)

###

test system: Human Cav3.1 (Homo sapiens (Human), UniProt O43497)
Sequence (O43497 whole entry): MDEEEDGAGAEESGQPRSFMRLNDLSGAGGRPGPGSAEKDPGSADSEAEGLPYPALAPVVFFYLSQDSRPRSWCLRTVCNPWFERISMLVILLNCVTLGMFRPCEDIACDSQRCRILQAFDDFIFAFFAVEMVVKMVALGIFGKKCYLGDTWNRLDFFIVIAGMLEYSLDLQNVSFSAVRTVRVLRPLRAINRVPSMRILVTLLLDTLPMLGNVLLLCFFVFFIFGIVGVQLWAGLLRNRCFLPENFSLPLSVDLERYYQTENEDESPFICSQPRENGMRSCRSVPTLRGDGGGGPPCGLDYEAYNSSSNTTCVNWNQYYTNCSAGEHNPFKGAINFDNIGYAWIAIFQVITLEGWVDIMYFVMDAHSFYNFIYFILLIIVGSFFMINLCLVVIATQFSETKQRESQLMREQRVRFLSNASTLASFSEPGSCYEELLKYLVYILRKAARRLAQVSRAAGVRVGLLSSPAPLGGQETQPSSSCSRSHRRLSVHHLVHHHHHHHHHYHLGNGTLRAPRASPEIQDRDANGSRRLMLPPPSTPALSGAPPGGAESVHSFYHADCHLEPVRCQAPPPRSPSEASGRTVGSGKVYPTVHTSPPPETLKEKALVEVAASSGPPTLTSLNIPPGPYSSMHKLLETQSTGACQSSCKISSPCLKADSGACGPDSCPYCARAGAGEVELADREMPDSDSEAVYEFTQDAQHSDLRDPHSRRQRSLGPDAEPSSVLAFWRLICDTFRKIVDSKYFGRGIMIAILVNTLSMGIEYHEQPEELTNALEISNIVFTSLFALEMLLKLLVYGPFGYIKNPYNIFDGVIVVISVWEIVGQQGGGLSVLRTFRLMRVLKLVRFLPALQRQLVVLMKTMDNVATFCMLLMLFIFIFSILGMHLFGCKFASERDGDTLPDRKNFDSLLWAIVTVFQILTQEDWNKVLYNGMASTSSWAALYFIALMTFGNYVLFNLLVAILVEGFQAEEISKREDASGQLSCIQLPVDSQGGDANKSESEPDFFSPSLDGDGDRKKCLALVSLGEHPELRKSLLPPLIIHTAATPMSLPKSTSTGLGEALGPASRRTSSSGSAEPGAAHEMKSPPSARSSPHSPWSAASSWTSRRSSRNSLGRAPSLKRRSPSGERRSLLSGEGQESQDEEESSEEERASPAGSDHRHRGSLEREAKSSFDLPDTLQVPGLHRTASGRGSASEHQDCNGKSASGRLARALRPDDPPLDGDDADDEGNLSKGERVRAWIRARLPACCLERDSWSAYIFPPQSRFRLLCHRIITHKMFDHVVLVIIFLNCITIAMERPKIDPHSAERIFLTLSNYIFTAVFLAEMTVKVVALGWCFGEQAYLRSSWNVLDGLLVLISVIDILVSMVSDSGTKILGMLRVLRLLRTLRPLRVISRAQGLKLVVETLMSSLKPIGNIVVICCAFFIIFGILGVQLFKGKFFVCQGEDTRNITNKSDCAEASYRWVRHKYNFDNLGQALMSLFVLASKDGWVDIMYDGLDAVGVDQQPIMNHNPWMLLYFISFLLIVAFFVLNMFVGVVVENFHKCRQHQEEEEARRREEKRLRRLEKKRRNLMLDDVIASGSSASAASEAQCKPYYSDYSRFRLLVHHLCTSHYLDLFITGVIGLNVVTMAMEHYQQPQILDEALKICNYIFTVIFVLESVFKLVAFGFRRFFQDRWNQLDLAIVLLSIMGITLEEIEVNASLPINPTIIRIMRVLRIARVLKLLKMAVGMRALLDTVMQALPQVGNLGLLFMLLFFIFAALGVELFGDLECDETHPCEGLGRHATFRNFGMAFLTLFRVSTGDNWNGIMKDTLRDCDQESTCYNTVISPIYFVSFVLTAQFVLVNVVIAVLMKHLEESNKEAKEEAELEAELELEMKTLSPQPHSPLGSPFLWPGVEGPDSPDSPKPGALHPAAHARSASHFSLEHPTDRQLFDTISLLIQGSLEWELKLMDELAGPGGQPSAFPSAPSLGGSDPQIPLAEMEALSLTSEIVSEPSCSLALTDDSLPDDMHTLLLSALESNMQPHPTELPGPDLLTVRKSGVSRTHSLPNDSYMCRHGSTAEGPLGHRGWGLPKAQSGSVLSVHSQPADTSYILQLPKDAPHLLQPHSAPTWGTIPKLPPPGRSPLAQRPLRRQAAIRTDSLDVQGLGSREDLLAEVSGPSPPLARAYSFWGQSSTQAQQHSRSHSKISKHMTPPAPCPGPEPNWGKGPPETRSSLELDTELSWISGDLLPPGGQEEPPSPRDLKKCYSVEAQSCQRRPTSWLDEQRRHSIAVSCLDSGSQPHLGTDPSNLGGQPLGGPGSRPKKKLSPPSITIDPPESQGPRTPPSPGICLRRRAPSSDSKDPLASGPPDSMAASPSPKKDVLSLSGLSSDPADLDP
procedure summary: Human Cav3.1 calcium channel patch clamp assay (SyncroPatch 384PE, HEK-293 natClytin/TASK1+Cav3.1 cell line)
Assay type: cell-based
reported conditions: voltage dependent block (VDB); read-out: Cav3.1 (VDB) IC50
Experimental: Pulse generation and data collection were performed with PatchController384 V1.3.0 and DataController384 V1.2.1 (Nanion Technologies). […] Current was recorded in whole cell configuration from a population of cells. […] Currents were recorded at room temperature. […] Current amplitude (pA) was measured in the peak 1 and 2. The average of last 3 sweeps of each liquid period (vehicle, compound under investigation, full block) was calculated. […]
pIC50: −log10 of the molar value.
value kind: pIC50

CC(C)(C)C(O)CN1CC2(CCC(C(=O)NC34CC5CC(CC(C5)C3)C4)CC2)C1 (stereo not shown); 6.23
O=C(CN1CC2(CCC(C(=O)Nc3cccc(Cl)c3)CC2)C1)NC1(C(F)(F)F)CCC1; 6.69

a: N#CC1(CN2CC3(CCC(C(=O)Nc4cc(F)cc(Cl)c4)CC3)C2)CCCC1
b: O=C(Nc1cc(F)cc(Cl)c1)C1CCC2(CC1)CN(CC(F)(F)C1CCCCC1)C2
When a and b are compared, which has the higher number for pIC50? Selection: enter the item's label. a
(a: 6.53, b: 6.03)

###

test system: Human Cav3.1 (Homo sapiens (Human), UniProt O43497)
procedure summary: Human Cav3.1 calcium channel patch clamp assay (SyncroPatch 384PE, HEK-293 natClytin/TASK1+Cav3.1 cell line)
Assay type: cell-based
reported conditions: voltage dependent block (VDB); read-out: Cav3.1 (VDB) IC50
Protocol: Pulse generation and data collection were performed with PatchController384 V1.3.0 and DataController384 V1.2.1 (Nanion Technologies). […] Current was recorded in whole cell configuration from a population of cells. […] Currents were recorded at room temperature. […] Current amplitude (pA) was measured in the peak 1 and 2. The average of last 3 sweeps of each liquid period (vehicle, compound under investigation, full block) was calculated. […]
value kind: IC50 (nM)

Record excerpt, results attached:
O=C(Nc1cc(F)cc(Cl)c1)C1CCC2(CC1)CN(CCC1CCCC1)C2 [Example 17]; 182
COc1cc(F)cc(NC(=O)C2CCC3(CC2)CN(CC(=O)NC2(C(F)(F)F)CC2)C3)c1 [Example 82]; 238

P: N#CC1(CN2CC3(CCC(C(=O)Nc4cc(F)cc(Cl)c4)CC3)C2)CCC(F)(F)CC1 [Example 107]
Q: O=C(CN1CC2(CCC(C(=O)Nc3cccc(C(F)F)c3)CC2)C1)NC1(C(F)(F)F)CC1 [Example 111]
// compare measured IC50 between P and Q ; output the lower one Selection: enter the item's label. P
(P: 427 nM, Q: 932 nM)

###

test system: Human Cav3.1 (Homo sapiens (Human))
procedure summary: Human Cav3.1 calcium channel patch clamp assay (SyncroPatch 384PE, HEK-293 natClytin/TASK1+Cav3.1 cell line)
Format: cell-based
reported conditions: voltage dependent block (VDB); read-out: Cav3.1 (VDB) IC50
value kind: IC50 (µM)

Record excerpt, results attached:
CC(C)(C)NC(=O)CN1CC2(CCC(C(=O)Nc3cc(F)cc(OC(F)F)c3)CC2)C1; 0.118
CC(C)(NC(=O)CN1CC2(CCC(C(=O)Nc3cccc(C(F)F)c3)CC2)C1)C(F)(F)F; 0.43
CC(C)(C)CCN1CC2(CCC(C(=O)NC34CC5CC(CC(C5)C3)C4)CC2)C1; 1.29
N#CC1(CN2CC3(CCC(C(=O)Nc4cc(F)cc(C(F)F)c4)CC3)C2)CCCCC1; 0.612
[2H]C([2H])([2H])C(NC(=O)CN1CC2(CCC(C(=O)Nc3cc(F)cc(OC)c3)CC2)C1)(C([2H])([2H])[2H])C([2H])([2H])[2H]; 0.415
CC(C)(C)NC(=O)CN1CC2(CCC(C(=O)Nc3ccc(Cl)cc3)CC2)C1; 0.724
O=C(Nc1cc(F)cc(Cl)c1)C1CCC2(CC1)CN(Cc1cccc(Cl)c1)C2; 0.467

I: Cc1cccc(NC(=O)C2CCC3(CC2)CN(CC(=O)NC2(C(F)(F)F)CC2)C3)c1
II: CN(C(=O)CN1CC2(CCC(C(=O)Nc3cc(F)cc(C(F)F)c3)CC2)C1)C1CCCC1
When I and II are compared, which has the higher number for IC50? Selection: enter the item's label. I

###

test system: Human Cav3.1 (Homo sapiens (Human))
procedure summary: Human Cav3.1 calcium channel patch clamp assay (SyncroPatch 384PE, HEK-293 natClytin/TASK1+Cav3.1 cell line)
Assay type: cell-based
reported conditions: voltage dependent block (VDB); read-out: Cav3.1 (VDB) IC50
pIC50: −log10 of the molar value.
value kind: pIC50

Record excerpt, results attached:
O=C(Nc1cc(F)cc(C(F)F)c1)C1CCC2(CC1)CN(CCNC(=O)C1(C(F)(F)F)CC1)C2; 6.55
CC1(CCN2CC3(CCC(C(=O)Nc4cc(F)cc(C(F)F)c4)CC3)C2)CC1; 6.44
N#CC1(CN2CC3(CCC(C(=O)Nc4cc(F)cc(C(F)F)c4)CC3)C2)CC1; 5.82
O=C(CN1CC2(CCC(C(=O)Nc3cccc(OC(F)F)c3)CC2)C1)NC1(C(F)(F)F)CC1; 6.44

P: CC(C)(NC(=O)CN1CC2(CCC(C(=O)Nc3cc(F)cc(C(F)F)c3)CC2)C1)C(F)(F)F
Q: N#CC1(CN2CC3(CCC(C(=O)Nc4cc(Cl)cc(Cl)c4)CC3)C2)CC1
// compare measured pIC50 between P and Q ; output the lower one Selection: enter the item's label. Q

###

test system: Human Cav3.1 (Homo sapiens (Human))
procedure summary: Human Cav3.1 calcium channel patch clamp assay (SyncroPatch 384PE, HEK-293 natClytin/TASK1+Cav3.1 cell line)
Assay type: cell-based
reported conditions: voltage dependent block (VDB); read-out: Cav3.1 (VDB) IC50
pIC50: −log10 of the molar value.
value kind: pIC50

Record excerpt, results attached:
CC(C)(NC(=O)CN1CC2(CCC(C(=O)Nc3cccc(OC(F)F)c3)CC2)C1)C(F)(F)F [Example 69]; 6.63
CC1(C(=O)NCCN2CC3(CCC(C(=O)Nc4cc(F)cc(C(F)F)c4)CC3)C2)CCC1 [Example 53]; 6.35
CC(C)(C)S(=O)(=O)CCN1CC2(CCC(C(=O)Nc3cc(F)cc(Cl)c3)CC2)C1 [Example 95]; 6.22

I: Cc1cc(F)cc(NC(=O)C2CCC3(CC2)CN(CC(=O)NC2(C(F)(F)F)CC2)C3)c1 [Example 117]
II: COc1cccc(NC(=O)C2CCC3(CC2)CN(CC(=O)NC2(C(F)(F)F)CC2)C3)c1 [Example 112]
When I and II are compared, which has the higher number for pIC50? Selection: enter the item's label. I
(I: 6.66, II: 5.85)

a: CC(C)(C)NC(=O)CN1CC2(CCC(C(=O)Nc3cccc(Cl)c3)CC2)C1 [Example 39]
b: CC1(OC(=O)CN2CC3(CCC(C(=O)Nc4cc(F)cc(Cl)c4)CC3)C2)CC1 [Example 64]
// compare measured pIC50 between a and b ; output the lower one Selection: enter the item's label. b
